- system: MDR1 (P-gp) (Homo sapiens (Human), UniProt P08183)
- Sequence (P08183 whole entry): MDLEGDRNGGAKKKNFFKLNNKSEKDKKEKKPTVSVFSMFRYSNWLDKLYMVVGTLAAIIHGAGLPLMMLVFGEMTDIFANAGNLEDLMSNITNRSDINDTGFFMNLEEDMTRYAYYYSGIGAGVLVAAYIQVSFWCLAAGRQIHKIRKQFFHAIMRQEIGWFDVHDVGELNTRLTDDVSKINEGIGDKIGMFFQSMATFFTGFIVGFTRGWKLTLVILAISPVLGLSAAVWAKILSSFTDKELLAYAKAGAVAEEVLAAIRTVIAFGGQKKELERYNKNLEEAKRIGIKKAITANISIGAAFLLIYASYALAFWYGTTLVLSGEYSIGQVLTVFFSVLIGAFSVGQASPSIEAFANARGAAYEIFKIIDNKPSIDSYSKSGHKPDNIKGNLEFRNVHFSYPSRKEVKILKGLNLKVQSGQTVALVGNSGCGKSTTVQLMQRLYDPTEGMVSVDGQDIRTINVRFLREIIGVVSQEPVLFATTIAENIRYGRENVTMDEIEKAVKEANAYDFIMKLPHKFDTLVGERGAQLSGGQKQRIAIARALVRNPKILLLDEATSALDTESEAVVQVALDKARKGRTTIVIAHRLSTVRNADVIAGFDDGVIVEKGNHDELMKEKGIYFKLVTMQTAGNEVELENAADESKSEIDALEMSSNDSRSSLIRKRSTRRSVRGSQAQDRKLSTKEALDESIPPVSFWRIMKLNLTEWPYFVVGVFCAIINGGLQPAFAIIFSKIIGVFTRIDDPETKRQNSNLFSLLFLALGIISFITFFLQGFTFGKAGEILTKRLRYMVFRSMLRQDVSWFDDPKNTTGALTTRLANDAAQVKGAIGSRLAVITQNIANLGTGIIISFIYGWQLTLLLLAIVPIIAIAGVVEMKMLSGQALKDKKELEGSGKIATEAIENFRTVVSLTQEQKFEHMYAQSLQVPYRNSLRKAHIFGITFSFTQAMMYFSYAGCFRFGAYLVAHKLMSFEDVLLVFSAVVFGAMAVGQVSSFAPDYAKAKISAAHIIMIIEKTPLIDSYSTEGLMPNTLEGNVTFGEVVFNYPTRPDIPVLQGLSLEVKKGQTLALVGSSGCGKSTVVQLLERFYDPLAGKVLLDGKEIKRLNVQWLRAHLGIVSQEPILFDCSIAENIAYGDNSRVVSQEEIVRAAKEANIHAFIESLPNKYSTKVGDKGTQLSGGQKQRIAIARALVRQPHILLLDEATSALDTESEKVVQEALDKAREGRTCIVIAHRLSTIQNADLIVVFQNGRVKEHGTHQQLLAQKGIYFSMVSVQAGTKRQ
- assayProcedure: MDR1 transfected LLC-PK1 permeability/efflux, Assay 6
- measurementConditions: pig, LLC-PK1, Assay 6 Pe Ratio, efflux ratio Papp(B-A)/Papp(A-B), MDR1 transfected LLC-PK1
readoutType: efflux ratio at 2 h, 1 μM
API note: the answer field is a bare number with no unit suffix.

# annotated cases, reported efflux ratio at 2 h, 1 μM shown
Cc1cc(Nc2ncnc3cnc(N4CCCC4=O)nc23)ccc1Oc1ccc2c(c1)ncn2C    6.3
Cc1cc(Nc2ncnc3cnc(N4CC[C@@H](S(C)(=O)=O)C4)nc23)ccc1Oc1ccc2c(c1)ncn2C    36.1
Cc1cc(Nc2ncnc3cnc(N4CCC(C)(O)CC4)nc23)ccc1Oc1ccc2c(c1)ncn2C    3.3

Let's switch to this compound now.
stdin: Name the recorded efflux ratio at 2 h, 1 μM for Cc1cc(Nc2ncnc3cnc(N4CCC(C)S4(=O)=O)nc23)ccc1Oc1ccc2c(c1)ncn2C (stereo not shown) .
stdout: 6

====

- system: EGFR (Homo sapiens (Human))
readoutType: IC50

# annotated cases, reported IC50 shown
Cc1cc(Nc2ncnc3cnc(N4CCN5CCOC[C@H]5C4)nc23)ccc1Oc1ccc2c(c1)ncn2C    4.59 µM
Cc1cc(Nc2ncnc3cnc(NC4CCC4(F)F)nc23)ccc1Oc1ccc2c(c1)ncn2C (stereo not shown)    ≥ 10 µM
Cc1cc(Nc2ncnc3cnc(N4CCOCC4)nc23)c(F)cc1Oc1ccc2c(c1)ncn2C.O=C(O)C(F)(F)F [Example 78, 2,2,2-trifluoroacetate]    ≥ 10 µM
N#C[C@@H]1CCN(c2ncc3ncnc(Nc4ccc(Oc5ccn6ncnc6c5)c(Cl)c4)c3n2)C1    ≥ 10 µM

stdin: Name the recorded IC50 for Cc1cc(Nc2ncnc3cnc(N4C(C)CCS4(=O)=O)nc23)ccc1Oc1ccc2c(c1)ncn2C.O=C(O)C(F)(F)F (stereo not shown) [Example 79, 2,2,2-trifluoroacetate] .
stdout: 3.49 µM

stdin: Entry Cc1cc(Nc2ncnc3cnc(N(C)CC(C)(C)C#N)nc23)ccc1Oc1ccc2c(c1)ncn2C please
stdout: ≥ 10 µM

stdin: Entry Cc1cc(Nc2ncnc3cnc(N4CC[C@H](C)C4=O)nc23)ccc1Oc1ccc2c(c1)ncn2C please
stdout: ≥ 10 µM

====

- system: ErbB2 insYVMA (HER2-YVMA, SEQ ID NO: 2) (Homo sapiens, UniProt P04626, INS775YVMA/P1170A)
- Sequence (P04626 with tags, fused parts or gaps INS775YVMA/P1170A limits assumed): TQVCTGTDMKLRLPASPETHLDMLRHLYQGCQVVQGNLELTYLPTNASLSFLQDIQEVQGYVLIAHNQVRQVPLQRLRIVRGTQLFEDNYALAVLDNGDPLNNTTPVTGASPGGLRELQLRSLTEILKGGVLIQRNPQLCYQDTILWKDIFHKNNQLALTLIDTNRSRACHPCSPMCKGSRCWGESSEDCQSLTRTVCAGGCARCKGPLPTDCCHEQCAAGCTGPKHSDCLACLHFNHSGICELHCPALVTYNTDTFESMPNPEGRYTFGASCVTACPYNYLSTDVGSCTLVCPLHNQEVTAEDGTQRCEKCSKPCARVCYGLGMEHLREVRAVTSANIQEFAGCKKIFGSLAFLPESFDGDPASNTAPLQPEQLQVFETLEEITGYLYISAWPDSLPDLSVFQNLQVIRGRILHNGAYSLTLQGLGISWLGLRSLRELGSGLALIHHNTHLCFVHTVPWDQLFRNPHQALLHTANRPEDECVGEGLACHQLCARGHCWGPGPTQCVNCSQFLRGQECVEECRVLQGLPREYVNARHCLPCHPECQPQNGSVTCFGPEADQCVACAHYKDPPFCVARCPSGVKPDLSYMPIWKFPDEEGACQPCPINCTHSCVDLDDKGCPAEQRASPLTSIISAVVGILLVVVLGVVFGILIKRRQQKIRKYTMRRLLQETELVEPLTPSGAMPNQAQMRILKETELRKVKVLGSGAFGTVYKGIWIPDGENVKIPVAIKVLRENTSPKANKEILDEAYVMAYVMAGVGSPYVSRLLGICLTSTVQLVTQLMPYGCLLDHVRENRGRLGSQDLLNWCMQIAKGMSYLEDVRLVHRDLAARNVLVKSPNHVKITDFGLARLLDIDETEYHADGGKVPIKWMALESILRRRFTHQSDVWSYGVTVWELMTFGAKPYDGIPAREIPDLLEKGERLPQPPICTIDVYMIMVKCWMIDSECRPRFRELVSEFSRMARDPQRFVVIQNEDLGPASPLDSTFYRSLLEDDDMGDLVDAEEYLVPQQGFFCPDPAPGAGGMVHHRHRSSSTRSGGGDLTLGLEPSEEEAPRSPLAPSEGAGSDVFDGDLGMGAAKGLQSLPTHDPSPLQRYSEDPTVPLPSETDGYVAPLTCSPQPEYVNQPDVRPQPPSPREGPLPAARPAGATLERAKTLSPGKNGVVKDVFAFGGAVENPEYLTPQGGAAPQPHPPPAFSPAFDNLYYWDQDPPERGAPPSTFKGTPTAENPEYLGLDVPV
- assayProcedure: biochemical
- measurementConditions: ErbB2 insYVMA enzyme assay; read-out: Assay 1 IC50
readoutType: pIC50
Worth noting: pIC50 values are minus log10 of concentrations stated in mol/L.

# annotated cases, reported pIC50 shown
Cc1c(Oc2ccn3ncnc3c2)ccc(Nc2ncnc3cnc(N4C[C@@H]5CC4CO5)nc23)c1F [Example 313]    7.67
Cn1cnc2cc(Oc3ccc(Nc4ncnc5cnc(N6CC[C@@H]7COC[C@H]76)nc45)cc3Cl)ccc21 [Example 489]    7.75
CCCOc1ncc2ncnc(Nc3ccc(Oc4ccc5c(c4)ncn5C)c(C)c3)c2n1 [Example 221]    6.91
Cc1cc(Nc2ncnc3cnc(N4CC(CS(C)(=O)=O)C4)nc23)ccc1Oc1ccc2c(c1)ncn2C [Example 232]    7.82
Cn1cnc2cc(Oc3ccc(Nc4ncnc5cnc(N6C[C@H]7C[C@@H]6CO7)nc45)cc3Cl)ccc21 [Example 455]    7.31

Let's switch to this compound now.
stdin: State its pIC50 on ErbB2 insYVMA (HER2-YVMA, SEQ ID NO: 2) (Homo sapiens, UniProt P04626, INS775YVMA/P1170A): Cc1cc(Nc2ncnc3cnc(N4CC5(CCO5)C4)nc23)ccc1Oc1ccc2c(c1)ncn2C [Example 282]
stdout: 7.40

====

Let's look at some compounds and their measured efflux ratio at 2 h, 1 μM.
- system: BCRP (Homo sapiens (Human), UniProt Q9UNQ0)
- Sequence (Q9UNQ0 whole entry): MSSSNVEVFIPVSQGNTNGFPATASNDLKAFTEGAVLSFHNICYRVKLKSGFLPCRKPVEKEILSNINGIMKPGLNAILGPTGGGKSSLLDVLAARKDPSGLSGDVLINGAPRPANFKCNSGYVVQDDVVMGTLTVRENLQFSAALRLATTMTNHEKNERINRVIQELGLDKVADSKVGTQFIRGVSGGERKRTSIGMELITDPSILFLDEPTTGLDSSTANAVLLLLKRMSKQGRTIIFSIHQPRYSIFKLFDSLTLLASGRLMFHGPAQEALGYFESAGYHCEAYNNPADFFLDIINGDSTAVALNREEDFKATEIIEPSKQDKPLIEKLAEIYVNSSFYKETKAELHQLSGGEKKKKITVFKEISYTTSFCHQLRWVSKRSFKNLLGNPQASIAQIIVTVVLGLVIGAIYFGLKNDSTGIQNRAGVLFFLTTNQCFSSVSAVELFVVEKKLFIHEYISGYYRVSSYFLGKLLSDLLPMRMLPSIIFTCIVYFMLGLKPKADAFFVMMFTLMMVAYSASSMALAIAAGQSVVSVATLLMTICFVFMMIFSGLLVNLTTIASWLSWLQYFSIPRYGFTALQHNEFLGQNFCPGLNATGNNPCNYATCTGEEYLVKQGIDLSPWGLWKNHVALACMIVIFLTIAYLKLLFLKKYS
- assayProcedure: BCRP transfected MDCKII canine Mdr1 knockout permeability/efflux, Assay 9
- measurementConditions: dog, Assay 9 Pe Ratio, efflux ratio Papp(B-A)/Papp(A-B), BCRP transfected MDCKII canine Mdr1 knockout
API note: the answer field is a bare number with no unit suffix.

Cc1cc(Nc2ncnc3cnc(N4C[C@@H]5COC[C@@H]54)nc23)ccc1Oc1ccc2c(c1)ncn2C [Example 348]    5
CNc1ncc2ncnc(Nc3ccc(Oc4cc(F)c5c(c4)ncn5C)c(C)c3)c2n1 [Example 88]    1
Cc1cc(Nc2ncnc3cnc(N4CC5C6CCC(O6)C5C4)nc23)ccc1Oc1ccc2c(c1)ncn2C (stereo not drawn) [Example 16]    1.8
Cn1cnc2cc(Oc3ccc(Nc4ncnc5cnc(N6CC[C@H](CC#N)C6)nc45)cc3Cl)ccc21 [Example 358]    8.9
Cc1cc(Nc2ncnc3cnc(N4CCN5CCOC[C@@H]5C4)nc23)ccc1Oc1ccc2c(c1)ncn2C [Example 190]    4.7

Let's switch to this compound now.
stdin: Name the recorded efflux ratio at 2 h, 1 μM for Cc1cc(Nc2ncnc3cnc(N4CCN[C@@H](C(F)(F)F)C4)nc23)ccc1Oc1ccc2c(c1)ncn2C [Example 182] .
stdout: 1.9

====

- system: ErbB2 WT (Homo sapiens (Human))
- Sequence (P04626 23-1255): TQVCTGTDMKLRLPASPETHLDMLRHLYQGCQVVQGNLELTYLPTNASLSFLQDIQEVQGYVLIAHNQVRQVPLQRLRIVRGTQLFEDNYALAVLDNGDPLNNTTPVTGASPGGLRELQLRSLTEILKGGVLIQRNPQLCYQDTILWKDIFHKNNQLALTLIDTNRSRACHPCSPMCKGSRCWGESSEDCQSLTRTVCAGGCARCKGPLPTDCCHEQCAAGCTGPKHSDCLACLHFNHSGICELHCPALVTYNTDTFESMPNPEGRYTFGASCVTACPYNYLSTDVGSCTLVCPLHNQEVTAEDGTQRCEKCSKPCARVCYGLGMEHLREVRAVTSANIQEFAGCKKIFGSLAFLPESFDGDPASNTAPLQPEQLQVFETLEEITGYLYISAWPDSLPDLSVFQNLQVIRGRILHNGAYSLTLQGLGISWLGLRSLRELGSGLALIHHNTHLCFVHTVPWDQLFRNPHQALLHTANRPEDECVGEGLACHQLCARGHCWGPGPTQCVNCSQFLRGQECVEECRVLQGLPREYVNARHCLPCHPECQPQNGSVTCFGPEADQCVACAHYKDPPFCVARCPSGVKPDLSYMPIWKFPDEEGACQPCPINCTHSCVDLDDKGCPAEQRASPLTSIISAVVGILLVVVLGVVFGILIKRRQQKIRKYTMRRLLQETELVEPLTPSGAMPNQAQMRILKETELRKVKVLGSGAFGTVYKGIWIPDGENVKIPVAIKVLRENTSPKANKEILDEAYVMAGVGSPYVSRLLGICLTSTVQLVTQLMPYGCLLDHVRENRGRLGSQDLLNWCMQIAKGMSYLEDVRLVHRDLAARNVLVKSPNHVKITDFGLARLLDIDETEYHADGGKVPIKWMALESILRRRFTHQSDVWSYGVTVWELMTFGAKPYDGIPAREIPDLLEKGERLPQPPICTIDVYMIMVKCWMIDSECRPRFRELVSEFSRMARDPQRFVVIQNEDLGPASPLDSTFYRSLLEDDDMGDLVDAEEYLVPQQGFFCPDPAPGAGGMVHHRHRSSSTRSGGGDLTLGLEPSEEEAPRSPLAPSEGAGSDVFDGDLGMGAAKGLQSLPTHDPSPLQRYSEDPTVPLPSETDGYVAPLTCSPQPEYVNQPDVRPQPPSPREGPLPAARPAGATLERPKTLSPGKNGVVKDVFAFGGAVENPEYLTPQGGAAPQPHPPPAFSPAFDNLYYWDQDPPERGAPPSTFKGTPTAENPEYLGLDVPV
readoutType: IC50 (µM)
Numbers only; they are read as µM.

# annotated cases, reported IC50 shown
Cc1cc(Nc2ncnc3cnc(N4CCC[C@](C)(O)C4)nc23)ccc1Oc1ccc2c(c1)ncn2C [Example 461]    0.0319
Cc1cc(Nc2ncnc3cnc(-c4cnco4)nc23)ccc1Oc1ccc2c(c1)ncn2C [Example 48]    0.189
Cc1cc(Nc2ncnc3cnc(N4C[C@H](C)O[C@@H](C)C4)nc23)ccc1Oc1ccc2c(c1)ncn2C [Example 72]    0.0839
Cc1cc(Nc2ncnc3cnc(N4CC[C@H](C(C)(C)O)C4)nc23)ccc1Oc1ccc2c(c1)ncn2C [Example 126]    0.0183
Cc1cc(Nc2ncnc3cnc(N4CCC[C@@H]4C(F)(F)F)nc23)ccc1Oc1ccc2c(c1)ncn2C [Example 229]    0.376

stdin: Name the recorded IC50 for Cc1cc(Nc2ncnc3cnc(N4CCC45COC5)nc23)ccc1Oc1cc(F)c2c(c1)ncn2C [Example 216] .
stdout: 0.0486

stdin: Entry Cc1cc(Nc2ncnc3cnc(N(C)[C@@H]4CNC[C@@H]4F)nc23)ccc1Oc1ccc2c(c1)ncn2C [Example 94] please
stdout: 0.0313

stdin: Entry Cc1cc(Nc2ncnc3cnc(N4CCN5CCOC[C@@H]5C4)nc23)ccc1Oc1ccc2c(c1)ncn2C [Example 190] please
stdout: 0.035

stdin: Entry C[C@@H]1COCCN1c1ncc2ncnc(Nc3ccc(Oc4ccc5c(c4)ncn5C)c(Cl)c3)c2n1 [Example 144] please
stdout: 0.0782

stdin: Entry COC1CCN(c2ncc3ncnc(Nc4ccc(Oc5ccn6ncnc6c5)c(C)c4)c3n2)CC1 [Example 411] please
stdout: 0.0562

stdin: Entry Cc1cc(Nc2ncnc3cnc(N4C5COCC4C5)nc23)ccc1Oc1ccc2c(c1)ncn2C [Example 255] please
stdout: 0.434

stdin: Entry CNc1ncc2ncnc(Nc3ccc(Oc4ccc5scnc5c4)c(C)c3)c2n1 [Example 50, 2,2,2-trifluoroacetate] please
stdout: 0.0114

stdin: Entry Cc1cc(Nc2ncnc3cnc(N4CCC5(CCO5)CC4)nc23)ccc1Oc1ccc2c(c1)ncn2C [Example 345] please
stdout: 0.0578

stdin: Entry Cc1cc(Nc2ncnc3cnc(N(C)c4cnn(C)c4)nc23)ccc1Oc1ccc2c(c1)ncn2C [Example 108] please
stdout: 0.0389

stdin: Entry CN(c1ncc2ncnc(Nc3ccc(Oc4ccn5ncnc5c4)c(Cl)c3)c2n1)[C@@H]1CCCOC1 [Example 368] please
stdout: 0.0048

stdin: Entry CN(C)c1ncc2ncnc(Nc3ccc(Oc4ccn5ncnc5c4)c(Cl)c3)c2n1 [Example 396] please
stdout: 0.0096

stdin: Entry COC[C@H](O)CN(C)c1ncc2ncnc(Nc3ccc(Oc4ccc5c(c4)ncn5C)c(C)c3)c2n1 (racemic) [Example 100] please
stdout: 0.0318

====

- system: MDR1 (P-gp) (Homo sapiens (Human))
- assayProcedure: MDR1 transfected MDCKII canine Mdr1 knockout permeability/efflux, Assay 7
- measurementConditions: dog, MDCK-MDR1
Lab note: anything with efflux ratio at 2 h, 1 μM below 2 is marked Yes; values at 2 or higher are marked No.

Here are 2 compounds together with their reported answers.
Cc1cc(Nc2ncnc3cnc(N4CC[C@@H](C#N)C4)nc23)ccc1Oc1ccc2c(c1)ncn2C    Yes
Cn1cnc2cc(Oc3ccc(Nc4ncnc5cnc(N6CCC6)nc45)cc3Cl)ccc21.O=C(O)C(F)(F)F    Yes

stdin: API: query returns whether the compound falls strictly under 2 in efflux ratio at 2 h, 1 μM. Query: Cc1cc(Nc2ncnc3cnc(N4CC[C@H](O)C4)nc23)ccc1Oc1ccc2c(c1)ncn2C
stdout: No

stdin: Entry Cc1cc(Nc2ncnc3cnc(N(C)C4CCOCC4)nc23)ccc1Oc1ccc2c(c1)ncn2C please
stdout: Yes

stdin: Entry Cc1cc(Nc2ncnc3cnc(N(C)[C@@H]4CCC[C@H]4O)nc23)ccc1Oc1ccc2c(c1)ncn2C please
stdout: Yes
